src = PubChem BioAssay AID624129

target: C-X-C chemokine receptor type 6 (Homo sapiens); test: potency against CXCR6 with APJ panel – cell-based, beta-arrestin, DiscoveRx, uHTS hits, dose response (AID 624129); details: CXCR6 beta-arrestin (DiscoveRx) antagonist cell assay, CXCR6, run 2, dose range 1
Metric: IC50 (µM)

INSERT INTO assay_data (compound, limit_sign, assay_result) VALUES
  ('O=C1C=CC(=O)N1c1ccc(-c2nc3ccccc3o2)cc1', '>', 80),
  ('O=C1c2ccccc2C(=O)N1OS(=O)(=O)c1ccc(F)cc1', '>', 80),
  ('C/C(=N\NC(=O)C(c1ccccc1)c1ccccc1)c1ccccn1', '=', 10.9),
  ('CCCCOc1ccc(C(=O)NNC(=S)NC(=O)CC)cc1', '=', 16),
  ('O=C1N[C@H](Cc2ccccc2)COC(=O)[C@H](Cc2ccc(F)cc2)CC/C=C/C[C@H]1CC(=O)N(CCO)Cc1ccccc1', '=', 7.32),
  ('Cc1c(Cl)sn(-c2ccc(Cl)cc2)c1=O', '=', 7.95),
  ('S=C(NCCCN1CCOCC1)Nc1ccc(Cl)cc1', '=', 11),
  ('C=C1C(=O)C23CCC4C(C)(C(=O)OC)CCCC4(C)C2CCC1(O)C3 (stereo not given)', '=', 5.95),
  ('COC(=O)[C@@H]1[C@@H](C#N)C2(c3ccccc3-c3ccccc32)N(c2ccc(Cl)cc2)N1C#N', '>', 80),
  ('CC(Oc1ccc(F)cc1)C(=O)Nc1nc(-c2ccccn2)cs1 (stereo not given)', '=', 8.41);

###

molecular target: C-X-C chemokine receptor type 6 (Homo sapiens); test: potency against CXCR6 with APJ panel – cell-based, beta-arrestin, DiscoveRx, uHTS hits, dose response (AID 624129); conditions: CXCR6 beta-arrestin (DiscoveRx) antagonist cell assay, CXCR6, run 2, dose range 2
Metric: IC50 (µM)

INSERT INTO measurements (molecule, assay_result) VALUES
  ('Cc1cccnc1Nc1nc(-c2ccccn2)cs1', 0.788),
  ('CCCC/C=C1/CCC(CN(C)C)C1=O (stereo unspecified)', 22.8),
  ('CC(C)(C)c1ccc(-n2nc(C#N)c(Cl)cc2=O)cc1', 7.92),
  ('O=C(Nc1nnc(SCc2ccc(F)cc2)s1)c1ccccn1', 3.25),
  ('CN(C)/C=C/c1oc2ccc(O)cc2c1[N+](=O)[O-]', 16.4),
  ('COc1ccc(-c2c(C(=O)c3ccccc3)[nH]c(N)c2C(=O)c2ccccc2)cc1OC', 23.8),
  ('COc1cc(/C=C(\C#N)c2nc(-c3cc4ccccc4oc3=O)cs2)ccc1O', 38.2),
  ('NC(=S)NN=C1c2cc(Cl)ccc2-c2c1cc(Cl)cc2[N+](=O)[O-]', 16.4),
  ('CC(=O)Nc1nc2ccccc2n1CCOc1ccccc1Cl', 15),
  ('COc1cc(/C=C/C(=O)c2ccc(C)c([N+](=O)[O-])c2)cc(OC)c1O', 22.5),
  ('Cn1cnc([N+](=O)[O-])c1S(=O)(=O)c1ccc(Cl)cc1', 13.3);

###

target: C-C chemokine receptor type 6 (Homo sapiens) (UniProt P51684); assay: potency against CXCR6 with APJ panel – cell-based, beta-arrestin, DiscoveRx, uHTS hits, dose response (AID 624129); details: CXCR6 beta-arrestin (DiscoveRx) antagonist cell assay, CCR6, dose range 1, mean IC50 across replicates
pIC50: −log10 of the molar value.
Here, each record is paired with measured pIC50 data.
Metric: pIC50

INSERT INTO results (compound, metric, limit_sign, assay_result) VALUES
  ('Oc1c(Br)cc(Br)cc1C=NCc1ccccc1', 'pIC50', '=', 4.73),
  ('CCS(=O)(=O)c1ncc(Cl)c(C(=O)Nc2ccc(S(=O)(=O)N3CCC(C)CC3)cc2)n1', 'pIC50', '=', 5.24),
  ('CNc1cc(Cl)c2nonc2c1[N+](=O)[O-]', 'pIC50', '=', 5.48),
  ('O=S(=O)(Nc1cccc2cccnc12)c1ccccc1', 'pIC50', '=', 5.01),
  ('O=C(c1nnsc1S(=O)c1ccc(Cl)cc1)N1CCOCC1 (stereo unspecified)', 'pIC50', '=', 4.46),
  ('Cc1cccc(C)c1NC(=O)c1nc(S(=O)(=O)Cc2ccccc2)ncc1Cl', 'pIC50', '<', 4.10);

###

biological target: C-X-C chemokine receptor type 6 (Homo sapiens) (UniProt O00574); assay: potency against CXCR6 with APJ panel – cell-based, beta-arrestin, DiscoveRx, uHTS hits, dose response (AID 624129); conditions: CXCR6 beta-arrestin (DiscoveRx) antagonist cell assay, CXCR6, dose range 1
Sequence (O00574 whole entry, looked up): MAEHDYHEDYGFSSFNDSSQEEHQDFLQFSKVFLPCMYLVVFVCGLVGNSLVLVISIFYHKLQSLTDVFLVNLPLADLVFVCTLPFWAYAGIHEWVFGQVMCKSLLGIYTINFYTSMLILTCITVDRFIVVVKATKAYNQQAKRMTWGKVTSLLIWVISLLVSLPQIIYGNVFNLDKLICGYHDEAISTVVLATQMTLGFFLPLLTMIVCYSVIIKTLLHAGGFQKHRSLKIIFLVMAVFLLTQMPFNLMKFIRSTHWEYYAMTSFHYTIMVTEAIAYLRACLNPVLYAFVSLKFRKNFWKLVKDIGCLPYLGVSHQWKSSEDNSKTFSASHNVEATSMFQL
Activity calls are given as the source filed them. The rule behind the calls is not given here.
Outcome codes: active, inactive

INSERT INTO results (compound, label_value) VALUES
  ('Cc1ccccc1CS(=O)(=O)c1nnc([C@H](Cc2ccccc2)NC(=O)OC(C)(C)C)o1', 'inactive'),
  ('CC1=CC(C)(C)N2C(=O)C(=Nc3ccc(O)cc3)c3cccc1c32', 'inactive'),
  ('O=C1C=CC(=O)N1c1ccc(N2CCCCC2)cc1', 'inactive'),
  ('COc1cc(/C=C/c2ccc3cccc(OC)c3n2)c(OC(C)=O)c([N+](=O)[O-])c1', 'inactive'),
  ('C=CC[n+]1c(-c2ccc(Cl)cc2Cl)csc1Nc1c(C)n(C)n(-c2ccccc2)c1=O', 'inactive'),
  ('CC(Oc1ccccc1)C(=O)Nc1nc(-c2ccccn2)cs1 (stereo unspecified)', 'inactive'),
  ('O=C(NC(=S)N(CCc1ccccc1)CCc1ccccc1)c1ccco1', 'inactive'),
  ('O=C(NCc1ccc2c(c1)OCO2)c1nc(S(=O)(=O)Cc2ccccc2F)ncc1Cl', 'inactive'),
  ('CCOC(=O)[C@]12Cc3cc(Cl)ccc3[C@H]1N(C1CCCCC1)C(=O)c1cc(OC)ccc12', 'inactive'),
  ('CC1(C)Cc2ccccc2C(NNC(=O)c2ccccn2)=N1', 'inactive'),
  ('Cc1cc(C)cc(N2C(=O)CC(Sc3nnnn3-c3ccccc3)C2=O)c1 (stereo unspecified)', 'inactive'),
  ('C=C1CCN([C@@H](Cc2ccccc2)C(=O)NCCC(C)C)S(=O)(=O)c2ccccc21', 'inactive'),
  ('CCC(=O)OCCNc1cc(SCCC(=O)OC)c2nonc2c1[N+](=O)[O-]', 'inactive'),
  ('CCOc1cc(/C=C2\N=C(SC)SC2=O)cc([N+](=O)[O-])c1OC(C)=O', 'inactive'),
  ('COc1ccc(/C=C2/CCC(CN3CCOCC3)C2=O)cc1 (stereo unspecified)', 'inactive'),
  ('NC(=O)c1ccccc1NCC(=O)c1ccc(Cl)cc1', 'active'),
  ('C=CCOc1ccc(C=NNc2ccc(S(=O)(=O)Nc3ccccc3C(=O)O)cc2[N+](=O)[O-])cc1OC', 'inactive'),
  ('CCCC(=O)OCCNc1cc(SCc2ccco2)c2nonc2c1[N+](=O)[O-]', 'inactive'),
  ('CCOC(=O)c1ccc(NC(=O)c2nc(S(=O)(=O)Cc3ccccc3)ncc2Cl)cc1', 'inactive'),
  ('Cc1ccc(OCC(=O)NNC(=S)NC(=O)C2CC2)c(C)c1', 'inactive'),
  ('C/C(=N\NC(=S)NCCc1ccccc1)c1ccc(Cl)cc1Cl', 'inactive');

###

biological target: C-C chemokine receptor type 6 (Homo sapiens) (UniProt P51684); experiment: potency against CXCR6 with APJ panel – cell-based, beta-arrestin, DiscoveRx, uHTS hits, dose response (AID 624129); settings: CXCR6 beta-arrestin (DiscoveRx) antagonist cell assay, CCR6, run 2, dose range 1
// assign Y if IC50 falls strictly below 7 µM, else N (ties count as N)

INSERT INTO measurements (molecule, tested_system, label_value) VALUES
  ('Cc1ccc(C(=O)/C=C/C(=O)c2ccc(C)cc2)cc1', 'C-C chemokine receptor type 6 (Homo sapiens) (UniProt P51684)', 'N'),
  ('O=C(Nc1nnc(SCc2ccc(F)cc2)s1)c1ccccn1', 'C-C chemokine receptor type 6 (Homo sapiens) (UniProt P51684)', 'Y'),
  ('C=C1C(=O)c2sccc2C(c2ccc(OC)c(OC)c2)C1COC(C)=O (centres undefined)', 'C-C chemokine receptor type 6 (Homo sapiens) (UniProt P51684)', 'Y'),
  ('C=C1C(=O)O[C@@H]2C[C@@H](C)[C@@H]3C=CC(=O)[C@@]3(C)[C@@H](OC(=O)CC(=O)O[C@H]3[C@@H]4C(=C)C(=O)O[C@@H]4C[C@@H](C)[C@@H]4C=CC(=O)[C@]43C)[C@H]12', 'C-C chemokine receptor type 6 (Homo sapiens) (UniProt P51684)', 'Y'),
  ('Cc1ccc(S(=O)(=O)Nc2cccc3cccnc23)cc1', 'C-C chemokine receptor type 6 (Homo sapiens) (UniProt P51684)', 'N'),
  ('C=C(CN(C)C)C(=O)c1ccc(OC2OC(COC(C)=O)C(OC(C)=O)C(OC(C)=O)C2OC(C)=O)cc1 (centres undefined)', 'C-C chemokine receptor type 6 (Homo sapiens) (UniProt P51684)', 'N'),
  ('Cc1nnc(Sc2cc(NCCCO)c([N+](=O)[O-])c3nonc23)s1', 'C-C chemokine receptor type 6 (Homo sapiens) (UniProt P51684)', 'N'),
  ('COc1ccc(C)c(-n2c(=O)n(Cc3ccccc3)c(=O)c3[nH]cnc32)c1', 'C-C chemokine receptor type 6 (Homo sapiens) (UniProt P51684)', 'N');
